assay: Clinical study in healthy adult subjects, pharmacokinetics; type: in vivo, human; conditions: human, plasma, oral, 2 mg, 2 mg Q12 h, Day 14; mean (% CV); read-out: Cmax
METRIC: Cmax (ng/mL)

[
  {
    "LINE_NOTATION": "C[C@H](Nc1ncnc2[nH]cnc12)c1cc2cccc(Cl)c2c(=O)n1-c1ccccc1",
    "READING": 140
  }
]

----------
Reported pIC50 for target or system UniProt:P42338, by entry.
Sequence (P42338 whole entry): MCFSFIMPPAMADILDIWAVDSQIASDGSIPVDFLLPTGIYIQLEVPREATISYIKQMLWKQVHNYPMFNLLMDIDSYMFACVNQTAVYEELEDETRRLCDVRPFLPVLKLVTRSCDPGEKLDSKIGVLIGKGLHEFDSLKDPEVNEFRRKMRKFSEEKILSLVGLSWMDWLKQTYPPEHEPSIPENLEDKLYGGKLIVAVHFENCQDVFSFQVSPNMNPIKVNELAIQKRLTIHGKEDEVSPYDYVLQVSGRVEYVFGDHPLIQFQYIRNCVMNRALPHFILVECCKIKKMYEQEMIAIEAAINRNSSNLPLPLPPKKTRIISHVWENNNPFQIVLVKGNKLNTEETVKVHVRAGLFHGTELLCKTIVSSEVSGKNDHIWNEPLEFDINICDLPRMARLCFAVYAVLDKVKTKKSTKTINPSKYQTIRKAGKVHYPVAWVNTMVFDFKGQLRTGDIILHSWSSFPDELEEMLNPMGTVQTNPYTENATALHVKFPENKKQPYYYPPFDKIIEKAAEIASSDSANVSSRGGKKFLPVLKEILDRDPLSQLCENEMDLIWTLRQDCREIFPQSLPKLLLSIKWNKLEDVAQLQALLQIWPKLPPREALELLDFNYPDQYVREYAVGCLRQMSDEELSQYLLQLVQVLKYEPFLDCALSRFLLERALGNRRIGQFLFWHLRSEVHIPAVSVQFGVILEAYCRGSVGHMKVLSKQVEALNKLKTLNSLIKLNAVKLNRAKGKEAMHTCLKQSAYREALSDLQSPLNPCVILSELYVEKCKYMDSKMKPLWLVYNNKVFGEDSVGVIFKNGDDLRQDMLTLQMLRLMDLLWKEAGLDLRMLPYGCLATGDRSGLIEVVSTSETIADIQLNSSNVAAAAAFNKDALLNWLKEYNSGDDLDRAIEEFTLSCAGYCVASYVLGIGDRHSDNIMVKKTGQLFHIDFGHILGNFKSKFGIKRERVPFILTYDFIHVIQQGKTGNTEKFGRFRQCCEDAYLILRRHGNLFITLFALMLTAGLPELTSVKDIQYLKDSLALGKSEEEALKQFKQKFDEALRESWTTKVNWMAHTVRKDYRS
pIC50: −log10 of the molar value.

[
  {
    "COMPOUND": "CCC(Nc1ncnc2[nH]cnc12)c1cc2cccc(C)c2c(=O)n1-c1ccccc1 (stereo not shown) [Compound 211]",
    "pIC50": "> 5.00"
  },
  {
    "COMPOUND": "Cc1ccccc1-n1c(Cn2nc(C(N)=O)c3c(N)ncnc32)cc2cccc(C)c2c1=O [Compound 298]",
    "pIC50": "> 5.00"
  },
  {
    "COMPOUND": "Cc1ccccc1-n1c(Cn2nc(-c3cc(O)cc(F)c3)c3c(N)ncnc32)cc2cccc(C)c2c1=O [Compound 7]",
    "pIC50": "> 6.00"
  },
  {
    "COMPOUND": "Cc1cccc2cc(Cn3nc(-c4ccc(F)c(O)c4)c4c(N)ncnc43)n(C3CCCC3)c(=O)c12 [Compound 64]",
    "pIC50": "< 5.00"
  }
]

----------
target: PI3K δ (Homo sapiens, UniProt O00329)
Sequence (O00329 whole entry): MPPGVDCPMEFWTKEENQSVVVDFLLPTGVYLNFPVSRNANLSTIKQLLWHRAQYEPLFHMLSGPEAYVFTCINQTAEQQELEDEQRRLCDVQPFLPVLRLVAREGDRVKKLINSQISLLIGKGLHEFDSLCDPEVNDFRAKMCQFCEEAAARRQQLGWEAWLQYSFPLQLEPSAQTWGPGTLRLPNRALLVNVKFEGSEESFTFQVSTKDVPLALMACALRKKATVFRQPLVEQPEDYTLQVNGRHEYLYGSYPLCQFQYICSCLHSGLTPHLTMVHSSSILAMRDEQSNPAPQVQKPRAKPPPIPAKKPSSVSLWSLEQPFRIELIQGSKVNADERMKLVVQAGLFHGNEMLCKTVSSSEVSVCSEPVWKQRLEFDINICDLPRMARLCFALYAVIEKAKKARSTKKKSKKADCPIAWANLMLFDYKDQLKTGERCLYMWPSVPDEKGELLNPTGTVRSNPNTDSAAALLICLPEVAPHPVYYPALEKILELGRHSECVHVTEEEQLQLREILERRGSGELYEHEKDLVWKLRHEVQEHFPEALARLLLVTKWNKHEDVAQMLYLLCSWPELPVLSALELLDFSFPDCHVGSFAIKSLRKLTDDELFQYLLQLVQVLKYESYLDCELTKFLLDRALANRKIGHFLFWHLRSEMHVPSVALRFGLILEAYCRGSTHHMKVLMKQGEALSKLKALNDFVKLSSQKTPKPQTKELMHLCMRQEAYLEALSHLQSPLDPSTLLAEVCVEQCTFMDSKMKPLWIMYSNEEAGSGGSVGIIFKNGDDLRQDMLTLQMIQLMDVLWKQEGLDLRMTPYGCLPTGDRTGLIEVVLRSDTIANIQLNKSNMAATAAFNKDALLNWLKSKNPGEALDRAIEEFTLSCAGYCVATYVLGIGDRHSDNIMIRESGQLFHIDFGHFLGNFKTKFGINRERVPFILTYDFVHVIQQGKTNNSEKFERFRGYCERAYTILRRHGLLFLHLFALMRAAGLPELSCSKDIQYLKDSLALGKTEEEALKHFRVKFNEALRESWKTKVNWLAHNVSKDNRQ
Sequence (P27986 whole entry partner): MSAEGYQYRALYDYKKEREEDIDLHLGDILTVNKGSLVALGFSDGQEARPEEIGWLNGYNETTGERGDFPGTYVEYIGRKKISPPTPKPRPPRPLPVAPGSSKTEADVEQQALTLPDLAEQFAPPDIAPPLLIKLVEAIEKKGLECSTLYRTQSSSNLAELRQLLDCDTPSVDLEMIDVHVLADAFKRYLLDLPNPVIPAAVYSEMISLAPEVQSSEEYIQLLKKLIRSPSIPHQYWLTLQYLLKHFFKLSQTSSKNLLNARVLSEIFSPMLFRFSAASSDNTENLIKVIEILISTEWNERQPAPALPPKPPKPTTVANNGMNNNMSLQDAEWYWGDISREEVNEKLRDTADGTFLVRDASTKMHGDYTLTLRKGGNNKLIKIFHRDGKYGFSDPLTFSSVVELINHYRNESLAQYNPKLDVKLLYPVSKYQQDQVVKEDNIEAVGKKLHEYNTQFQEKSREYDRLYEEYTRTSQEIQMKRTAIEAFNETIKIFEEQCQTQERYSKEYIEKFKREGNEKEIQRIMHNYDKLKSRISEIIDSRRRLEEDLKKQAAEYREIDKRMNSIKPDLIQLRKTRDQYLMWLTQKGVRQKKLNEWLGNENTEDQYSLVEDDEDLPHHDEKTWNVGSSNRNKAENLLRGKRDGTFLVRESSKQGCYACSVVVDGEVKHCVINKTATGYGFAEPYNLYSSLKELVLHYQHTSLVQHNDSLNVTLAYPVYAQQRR
pIC50: −log10 of the molar value.
METRIC: pIC50

[
  {
    "COMPOUND": "Cc1cccc2cc(C(C)Nc3ncnc4[nH]cnc34)n(-c3cccc(F)c3)c(=O)c12 (stereo not drawn) [Compound 229]",
    "METRIC": "pIC50",
    "READING": "> 7.00"
  },
  {
    "COMPOUND": "Cc1cccc2cc(Cn3nc(-c4cccc(O)c4)c4c(N)ncnc43)n(-c3ccccc3OCCN3CCOCC3)c(=O)c12 [Compound 109]",
    "METRIC": "pIC50",
    "READING": "> 7.00"
  },
  {
    "COMPOUND": "Cc1cccc2cc([C@H](C)Nc3ncnc4[nH]c(Cl)nc34)n(-c3ccccc3)c(=O)c12 [Compound 261]",
    "METRIC": "pIC50",
    "READING": "< 5.00"
  },
  {
    "COMPOUND": "Cc1cccc2cc(Cn3nc(-c4cc(O)cc(F)c4)c4c(N)ncnc43)n(C3CCCCC3)c(=O)c12 [Compound 110]",
    "METRIC": "pIC50",
    "READING": "> 7.00"
  },
  {
    "COMPOUND": "Cc1ccccc1-n1c(Cn2nc(-c3ccc(Cl)c(O)c3)c3c(N)ncnc32)cc2ccccc2c1=O [Compound 52]",
    "METRIC": "pIC50",
    "READING": "> 7.00"
  },
  {
    "COMPOUND": "Cc1cccnc1-n1c(Cn2nc(-c3ccc4oc(N)nc4c3)c3c(N)ncnc32)cc2cccc(C)c2c1=O [Compound 240]",
    "METRIC": "pIC50",
    "READING": "> 7.00"
  },
  {
    "COMPOUND": "CCc1ccccc1-n1c(Cn2nc(-c3cn[nH]c3)c3c(N)ncnc32)cc2cccc(C)c2c1=O [Compound 190]",
    "METRIC": "pIC50",
    "READING": "> 7.00"
  },
  {
    "COMPOUND": "Cc1cccc2cc(Cn3nc(-c4cc(O)cc(F)c4)c4c(N)ncnc43)n(C3CCCC3)c(=O)c12 [Compound 63]",
    "METRIC": "pIC50",
    "READING": "> 7.00"
  },
  {
    "COMPOUND": "CCC(Nc1ncnc2[nH]cnc12)c1cc2cccc(C)c2c(=O)n1C(C)C (stereo not drawn) [Compound 219]",
    "METRIC": "pIC50",
    "READING": "> 7.00"
  },
  {
    "COMPOUND": "Cc1ccncc1-n1c(Cn2nc(I)c3c(N)ncnc32)cc2cccc(C)c2c1=O [Compound 78]",
    "METRIC": "pIC50",
    "READING": "> 7.00"
  },
  {
    "COMPOUND": "Cc1cccc2cc([C@H](C)Nc3ncnc4[nH]ccc34)n(-c3ccccc3)c(=O)c12 [Compound 247]",
    "METRIC": "pIC50",
    "READING": "> 7.00"
  },
  {
    "COMPOUND": "Cc1ccccc1-n1c(Cn2nc(-c3ccc4sc(N)nc4c3)c3c(N)ncnc32)cc2cccc(C)c2c1=O [Compound 276]",
    "METRIC": "pIC50",
    "READING": "> 7.00"
  },
  {
    "COMPOUND": "Cc1cccc2cc([C@H](C)Nc3nc(N)ncc3C(N)=O)n(C3CC3)c(=O)c12 [Compound 282]",
    "METRIC": "pIC50",
    "READING": "< 5.00"
  },
  {
    "COMPOUND": "Cc1ccccc1-n1c(Cn2nc(-c3cccc(O)c3)c3c(N)ncnc32)cc2cccc(F)c2c1=O [Compound 59]",
    "METRIC": "pIC50",
    "READING": "> 7.00"
  },
  {
    "COMPOUND": "Cc1cccc2cc([C@H](C)Nc3nc(N)ncc3F)n(-c3ccccc3)c(=O)c12 [Compound 271]",
    "METRIC": "pIC50",
    "READING": "> 7.00"
  },
  {
    "COMPOUND": "Cc1cccc2cc(Cn3nc(-c4cc(O)cc(F)c4)c4c(N)ncnc43)n(C)c(=O)c12 [Compound 125]",
    "METRIC": "pIC50",
    "READING": "> 7.00"
  },
  {
    "COMPOUND": "COc1cc(F)cc(-c2nn(Cc3cc4cccc(C)c4c(=O)n3-c3ccccc3C)c3ncnc(N)c23)c1 [Compound 181]",
    "METRIC": "pIC50",
    "READING": "> 6.00"
  },
  {
    "COMPOUND": "Cc1cccc2cc([C@H](C)Nc3ncnc4[nH]cnc34)n(-c3ccccc3)c(=O)c12 [Compound 196]",
    "METRIC": "pIC50",
    "READING": "> 7.00"
  },
  {
    "COMPOUND": "Cc1ccccc1-n1c(Cn2nc(-c3cccc(Cl)c3)c3c(N)ncnc32)cc2cccc(C)c2c1=O [Compound 39]",
    "METRIC": "pIC50",
    "READING": "> 5.00"
  },
  {
    "COMPOUND": "Cc1cccc2cc(Cn3nc(-c4ccc5oc(N)nc5c4)c4c(N)ncnc43)n(C3CCC3)c(=O)c12 [Compound 208]",
    "METRIC": "pIC50",
    "READING": "> 7.00"
  },
  {
    "COMPOUND": "Cc1cccc2cc(Cn3nc(-c4ccc5oc(N)nc5c4)c4c(N)ncnc43)n(-c3ccccc3)c(=O)c12 [Compound 205]",
    "METRIC": "pIC50",
    "READING": "> 7.00"
  },
  {
    "COMPOUND": "CCC(Nc1ncnc2[nH]cnc12)c1cc2cccc(C)c2c(=O)n1-c1ccc(F)cc1 (stereo not drawn) [Compound 223]",
    "METRIC": "pIC50",
    "READING": "> 7.00"
  },
  {
    "COMPOUND": "Cc1cccc2cc(Cn3nc(-c4ccc5oc(N)nc5c4)c4c(N)ncnc43)n(C3CC3)c(=O)c12 [Compound 201]",
    "METRIC": "pIC50",
    "READING": "> 7.00"
  },
  {
    "COMPOUND": "Cc1ccccc1-n1c(Cn2nc(-c3ccc4nc(N)oc4c3)c3c(N)ncnc32)cc2cccc(C)c2c1=O [Compound 243]",
    "METRIC": "pIC50",
    "READING": "> 7.00"
  },
  {
    "COMPOUND": "COc1ccccc1-n1c(Cn2nc(-c3cccc(O)c3)c3c(N)ncnc32)cc2cccc(C)c2c1=O [Compound 74]",
    "METRIC": "pIC50",
    "READING": "> 7.00"
  },
  {
    "COMPOUND": "Cc1cccc2cc(Cn3nc(-c4ccc(O)c(F)c4)c4c(N)ncnc43)n(-c3ccccc3F)c(=O)c12 [Compound 29]",
    "METRIC": "pIC50",
    "READING": "> 6.00"
  },
  {
    "COMPOUND": "Cc1cccc2cc(Cn3nc(-c4cccc(O)c4)c4c(N)ncnc43)n(-c3ccccc3F)c(=O)c12 [Compound 10]",
    "METRIC": "pIC50",
    "READING": "> 7.00"
  },
  {
    "COMPOUND": "Cc1cccc2cc(Cn3nc(-c4ccc(O)c(Cl)c4)c4c(N)ncnc43)n(-c3ccccc3F)c(=O)c12 [Compound 26]",
    "METRIC": "pIC50",
    "READING": "> 6.00"
  },
  {
    "COMPOUND": "COc1cc(-c2nn(Cc3cc4cccc(C)c4c(=O)n3-c3ccccc3C)c3ncnc(N)c23)ccc1Cl [Compound 21]",
    "METRIC": "pIC50",
    "READING": "> 6.00"
  },
  {
    "COMPOUND": "CCC(Nc1ncnc2[nH]cnc12)c1cc2cccc(C)c2c(=O)n1-c1ccccc1C (stereo not drawn) [Compound 202]",
    "METRIC": "pIC50",
    "READING": "> 7.00"
  }
]

These entries and their values trace back to patent US20140120083A1.
